Entries annotated with measured EC50
# assayed.system: Voltage-dependent T-type calcium channel subunit alpha-1H (Homo sapiens);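 further: channel activity triggered by adding a high calcium stimulation buffer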
# Sequence (O95180 whole entry): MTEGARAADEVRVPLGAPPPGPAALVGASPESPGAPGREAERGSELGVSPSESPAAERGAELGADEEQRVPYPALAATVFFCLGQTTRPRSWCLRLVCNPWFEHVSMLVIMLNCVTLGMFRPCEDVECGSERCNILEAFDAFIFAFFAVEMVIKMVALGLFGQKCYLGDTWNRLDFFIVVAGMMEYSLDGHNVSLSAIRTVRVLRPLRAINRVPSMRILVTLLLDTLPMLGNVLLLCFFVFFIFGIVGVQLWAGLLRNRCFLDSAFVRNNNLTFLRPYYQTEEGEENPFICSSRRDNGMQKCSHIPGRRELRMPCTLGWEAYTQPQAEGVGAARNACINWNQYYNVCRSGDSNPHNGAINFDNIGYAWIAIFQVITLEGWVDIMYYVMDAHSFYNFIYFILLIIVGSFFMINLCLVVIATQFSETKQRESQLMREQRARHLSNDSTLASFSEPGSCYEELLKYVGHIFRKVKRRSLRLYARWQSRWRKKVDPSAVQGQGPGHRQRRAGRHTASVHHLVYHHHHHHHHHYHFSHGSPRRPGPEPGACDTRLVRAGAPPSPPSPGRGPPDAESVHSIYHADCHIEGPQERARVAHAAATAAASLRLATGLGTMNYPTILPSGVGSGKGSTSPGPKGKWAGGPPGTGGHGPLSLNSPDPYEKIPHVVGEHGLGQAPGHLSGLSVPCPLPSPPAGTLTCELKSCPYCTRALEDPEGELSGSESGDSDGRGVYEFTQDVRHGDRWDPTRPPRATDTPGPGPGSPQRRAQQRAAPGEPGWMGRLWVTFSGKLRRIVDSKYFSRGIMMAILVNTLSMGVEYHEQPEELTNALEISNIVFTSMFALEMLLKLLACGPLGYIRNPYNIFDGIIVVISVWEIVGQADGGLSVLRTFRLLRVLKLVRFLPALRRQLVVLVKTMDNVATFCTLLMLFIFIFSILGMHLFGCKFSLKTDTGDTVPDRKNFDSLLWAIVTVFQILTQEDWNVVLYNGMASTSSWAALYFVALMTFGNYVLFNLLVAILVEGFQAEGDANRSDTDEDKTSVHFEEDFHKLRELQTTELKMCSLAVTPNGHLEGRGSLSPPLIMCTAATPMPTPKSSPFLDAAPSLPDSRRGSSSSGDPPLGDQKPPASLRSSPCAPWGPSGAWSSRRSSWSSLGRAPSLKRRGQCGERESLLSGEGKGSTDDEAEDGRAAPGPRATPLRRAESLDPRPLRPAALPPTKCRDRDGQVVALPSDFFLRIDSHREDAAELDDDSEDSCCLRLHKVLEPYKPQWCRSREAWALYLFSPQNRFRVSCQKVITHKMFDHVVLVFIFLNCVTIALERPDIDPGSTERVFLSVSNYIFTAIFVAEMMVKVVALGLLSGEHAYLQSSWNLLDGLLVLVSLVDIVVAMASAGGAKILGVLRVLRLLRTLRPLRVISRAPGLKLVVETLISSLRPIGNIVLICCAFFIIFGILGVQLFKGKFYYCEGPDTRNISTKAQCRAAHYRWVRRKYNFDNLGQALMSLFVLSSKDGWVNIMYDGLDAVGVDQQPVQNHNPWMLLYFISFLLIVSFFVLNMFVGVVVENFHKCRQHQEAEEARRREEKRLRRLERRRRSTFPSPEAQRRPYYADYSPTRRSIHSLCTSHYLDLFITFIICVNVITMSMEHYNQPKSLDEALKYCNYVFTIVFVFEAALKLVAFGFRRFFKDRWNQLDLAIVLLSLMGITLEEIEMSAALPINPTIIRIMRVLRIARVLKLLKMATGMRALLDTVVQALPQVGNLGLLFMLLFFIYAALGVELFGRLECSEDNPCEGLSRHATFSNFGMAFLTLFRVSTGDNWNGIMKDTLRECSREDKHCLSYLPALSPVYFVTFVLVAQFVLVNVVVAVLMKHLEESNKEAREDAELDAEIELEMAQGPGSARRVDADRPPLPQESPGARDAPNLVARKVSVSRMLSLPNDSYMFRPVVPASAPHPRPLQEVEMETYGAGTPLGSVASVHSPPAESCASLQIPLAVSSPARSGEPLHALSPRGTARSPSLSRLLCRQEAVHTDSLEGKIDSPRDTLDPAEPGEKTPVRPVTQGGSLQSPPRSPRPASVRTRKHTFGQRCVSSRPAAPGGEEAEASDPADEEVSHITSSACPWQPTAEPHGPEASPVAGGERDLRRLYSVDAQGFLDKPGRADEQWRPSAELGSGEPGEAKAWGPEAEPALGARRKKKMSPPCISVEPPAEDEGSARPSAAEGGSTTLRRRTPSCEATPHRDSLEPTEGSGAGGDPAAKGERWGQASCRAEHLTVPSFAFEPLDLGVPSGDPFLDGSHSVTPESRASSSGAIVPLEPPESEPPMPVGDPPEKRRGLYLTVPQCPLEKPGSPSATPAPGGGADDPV
# Assay type: functional
Active and inactive are the calls of the source.

Example results:
INSERT INTO assay_data (molecule, reported_metric, reported_result) VALUES
  ('CCc1nnc(NC(=O)CC(CN(C)S(=O)(=O)c2ccccc2)c2ccccc2)s1 (stereo not given)', 'EC50', '2.4 µM (active)'),
  ('CC1CC(C)CN(C(=O)CSc2nnc(-c3ccc(Cl)s3)o2)C1 (stereo not given)', 'EC50', '10.8 µM (active)');

(Q) Report value: EC50, system: Voltage-dependent T-type calcium channel subunit alpha-1H (Homo sapiens), molecule: CN1CCN(c2ccc(Cl)cc2NC(=O)C2COc3ccccc3O2)CC1 (stereo not given);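 further: channel activity triggered by adding a high calcium stimulation buffer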
(A) 8.08 µM (active)

(Q) Give EC50; test system Voltage-dependent T-type calcium channel subunit alpha-1H (Homo sapiens); molecule "CCOC(=O)c1c(C)[nH]c(C)c1C(=O)Cn1nnc(-c2ccccc2C)n1"
(A) 5.31 µM (active)

(Q) Enter EC50 (test system Voltage-dependent T-type calcium channel subunit alpha-1H (Homo sapiens)) for "O=C(CCSc1nc(-c2ccco2)cc(C(F)(F)F)n1)N1CCN(c2ccccn2)CC1"
(A) 6.47 µM (active)
